Data provenance: PubChem BioAssay AID248

For each entry below, report its T/C value.
Tested on: L1210 leukemia ip in BDF1 mice, survival T/C
Experiment: NCI In Vivo Anticancer Drug Screen. Data for tumor model L1210 Leukemia (intraperitoneal) in B6D2F1 (BDF1) mice
Conditions: endpoint: mean survival time; dose: 50.0 mg/kg/injection; schedule: Q04DX003 (ip); vehicle: saline; higher = longer survival
Inconclusive results and toxic doses are left out.

Lookup result for `CCCCCCCCCCCCCCCCCC1=NCCN1CCN` ; measured T/C: 92 % of control

Hi team, please reply with T/C for each item in this list.
1. c1ccc2c(c1)CC1(Cc3ccccc3-2)C[N+]12CCCCC2
2. CNCCCC1c2ccccc2C=Cc2ccccc21
3. CCN1CC=CCC1
4. C=CCC(N)Cc1ccccc1 (configuration not stated)

Reply:
1: 110 % of control; 2: 101 % of control; 3: 98 % of control; 4: 105 % of control

Hi team, please reply with T/C for each item in this list.
1. CN(C)Cc1c[nH]c2nccnc12
2. CCCSc1ccc(N2C(N)=NC(N)=NC2(C)C)cc1
3. CCN(CC)CCOc1cc(C)ccc1C
4. CC(CC1c2ccccc2CCc2ccccc21)CN(C)C (configuration not stated)
5. C[P+](C)(Cc1ccc([N+](=O)[O-])cc1)c1ccccc1

Reply:
1. 105 % of control
2. 104 % of control
3. 100 % of control
4. 107 % of control
5. 104 % of control

Hi team, please reply with T/C for each item in this list.
1. CCC1(C)C(=O)N(Br)C(=O)N1Br (configuration not stated)
2. CC(=O)Oc1cccc(N(C)C)c1

Reply:
100 % of control
100 % of control

###

Test system: L1210 leukemia ip in BDF1 mice, survival T/C
Test: NCI In Vivo Anticancer Drug Screen. Data for tumor model L1210 Leukemia (intraperitoneal) in B6D2F1 (BDF1) mice
Conditions: endpoint: mean survival time; dose: 75.0 mg/kg/injection; schedule: Q01DX001 (ip); vehicle: other; higher = longer survival
Toxic doses and inconclusive results are not listed.
ASSAY READOUT: T/C

Examples from the recorded data:
Lookup result for `COc1cc2c(c(OC)c1OC)-c1ccc(O)c(=O)cc1[C@@H](NC(C)=O)CC2` ; measured T/C: 90 % of control

Lookup result for `Cc1c2c(c(C)c3ccncc13)S(=O)(=O)c1ccccc1-2` ; measured T/C: 95 % of control

Lookup result for `Nc1nc(N)c2c(n1)SCC(c1ccc(Cl)cc1)=N2` ; measured T/C: 101 % of control

Lookup result for `COc1ccc2nc3cc(Cl)ccc3c(Nc3ccc(O)c(CN4CCN(C)CC4)c3)c2c1` ; measured T/C: 96 % of control

Hi team, please reply with T/C for each item in this list.
1. CCC(CC)NC(CC)COC(=O)c1ccc(N)cc1 (centres undefined)
2. O=C1C2C3c4ccccc4C(C2C(=O)N1c1ccc(Cl)cc1)[n+]1ccccc13 (centres undefined)
3. CCOC(=O)c1ccc(NCc2nc3nc(N)nc(N)c3[nH]2)cc1
4. Clc1ccccc1/C=C1\c2ccc(Br)cc2-c2cccc[n+]21
5. O=C(NCCCl)NC1CS(=O)(=O)CS(=O)(=O)C1

Reply:
97 % of control
96 % of control
102 % of control
87 % of control
104 % of control

###

For each entry below, report its T/C value.
Test system: L1210 leukemia ip in BDF1 mice, survival T/C
Experiment: NCI In Vivo Anticancer Drug Screen. Data for tumor model L1210 Leukemia (intraperitoneal) in B6D2F1 (BDF1) mice
Settings: endpoint: mean survival time; dose: 25.0 mg/kg/injection; schedule: Q04DX003 (ip); vehicle: Klucel (hydroxypropylcellulose) (HPC); higher = longer survival
Inconclusive results and toxic doses are left out.

Examples from the recorded data:
Lookup result for `N#C/C(=C\C=C\c1ccccc1)C(=O)O` ; measured T/C: 107 % of control

Lookup result for CCC(CC)CC1CN2CCc3cc(OC)c(OC)cc3C2CC1(O)CC (centres undefined) ; measured T/C: 115 % of control

Lookup result for `COc1cccc(C[P+](C/C=C/c2ccccc2)(c2ccccc2)c2ccccc2)c1` ; measured T/C: 97 % of control

Hi team, please reply with T/C for each item in this list.
1. CCCN(CC#N)CCC
2. C=CCc1cc(CN(CCOCC)Cc2cc(CC=C)cc(OC)c2O)c(O)c(OC)c1
3. CC(C)(CO)N=Cc1ccccc1O
4. COc1ccccc1N=Nc1c(O)n(-c2ccccc2C)c(=S)n(-c2ccccc2OC)c1=O
5. CC(=O)OC1C(OCc2ccccc2)OC(COCc2ccccc2)C(OC2OC(COCc3ccccc3)C(OCc3ccccc3)C(OCc3ccccc3)C2OCc2ccccc2)C1OCc1ccccc1 (centres undefined)

Reply:
["96 % of control", "95 % of control", "96 % of control", "98 % of control", "87 % of control"]

###

System: L1210 leukemia ip in BDF1 mice, survival T/C
Assay: NCI In Vivo Anticancer Drug Screen. Data for tumor model L1210 Leukemia (intraperitoneal) in B6D2F1 (BDF1) mice
Conditions: endpoint: mean survival time; dose: 200.0 mg/kg/injection; schedule: Q01DX009 (ip); vehicle: Klucel (hydroxypropylcellulose) (HPC); higher = longer survival
Toxic doses and inconclusive results are not listed.
ASSAY READOUT: T/C

Examples from the recorded data:
Lookup result for `CCOC(=O)c1ccc(NC(=S)Nc2ccccc2)cc1N(CC)CC` ; measured T/C: 97 % of control

Lookup result for `ON(Cc1ccccc1)Cc1ccccc1` ; measured T/C: 107 % of control

Lookup result for `CC(C)(C)CC(Cl)Cl` ; measured T/C: 101 % of control

Lookup result for `NCCc1cnc(N=Nc2ccc(C(=O)O)cc2)[nH]1` ; measured T/C: 87 % of control

Lookup result for CC1=NNC(=O)C1CCO (configuration not stated) ; measured T/C: 95 % of control

Lookup result for `Cc1ccccc1N1C(=O)c2ccccc2C1=O` ; measured T/C: 98 % of control

Now look at this entry.
Lookup result for `C=CCN(CC=C)c1ccccc1` ; measured T/C: 107 % of control

###

Tested on: L1210 leukemia ip in BDF1 mice, survival T/C
Experiment: NCI In Vivo Anticancer Drug Screen. Data for tumor model L1210 Leukemia (intraperitoneal) in B6D2F1 (BDF1) mice
Conditions: endpoint: mean survival time; dose: 100.0 mg/kg/injection; schedule: Q01DX001 (ip); vehicle: other; higher = longer survival
Inconclusive results and toxic doses are left out.
ASSAY READOUT: T/C

Lookup result for `CC(=O)c1ccc2c(c1)sc1ccccc12` ; measured T/C: 96 % of control

Hi team, please reply with T/C for each item in this list.
1. CCOC(=O)c1cc2cc(CC)ccc2[nH]1
2. Cc1cc([N+](=O)[O-])c2nnnn2c1

Reply:
102 % of control
108 % of control

Hi team, please reply with T/C for each item in this list.
1. CCCCCOC(=O)c1cccc2c1-c1ccccc1C2=O
2. OCCC(c1ccc(Cl)cc1)N1CCCCC1 (stereo unspecified)
3. Cn1c(=O)c2[nH]c(CS(=O)(=O)Cc3nc4c([nH]3)c(=O)n(C)c(=O)n4C)nc2n(C)c1=O

Reply:
["93 % of control", "104 % of control", "101 % of control"]

###

Tested on: L1210 leukemia ip in BDF1 mice, survival T/C
Test: NCI In Vivo Anticancer Drug Screen. Data for tumor model L1210 Leukemia (intraperitoneal) in B6D2F1 (BDF1) mice
Conditions: endpoint: mean survival time; dose: 400.0 mg/kg/injection; schedule: Q04DX003 (ip); vehicle: gum acacia; higher = longer survival
Toxic doses and inconclusive results are not listed.
ASSAY READOUT: T/C

Lookup result for OC12c3ccccc3C1(c1ccccn1)c1ccccc12 (centres undefined) ; measured T/C: 103 % of control

Lookup result for `O=[N+]([O-])c1ccc(OCCCCCBr)c(Cl)c1` ; measured T/C: 102 % of control

Lookup result for `O=C(O)Cc1ccc(I)cc1` ; measured T/C: 94 % of control

Now look at this entry.
Lookup result for `Cc1cc([N+](=O)[O-])c(Cl)cc1N` ; measured T/C: 95 % of control

###

System: L1210 leukemia ip in BDF1 mice, survival T/C
Assay: NCI In Vivo Anticancer Drug Screen. Data for tumor model L1210 Leukemia (intraperitoneal) in B6D2F1 (BDF1) mice
Conditions: endpoint: mean survival time; dose: 50.0 mg/kg/injection; schedule: Q01DX009 (ip); vehicle: saline with Tween-80; higher = longer survival
Toxic doses and inconclusive results are not listed.
ASSAY READOUT: T/C

Examples from the recorded data:
Lookup result for CCCC(C)CN (stereo not given) ; measured T/C: 100 % of control

Lookup result for `C=Cc1ccc(Oc2ccccc2)cc1` ; measured T/C: 98 % of control

Hi team, please reply with T/C for each item in this list.
1. O=C(/C(=C\c1ccccc1)CO)c1ccccc1
2. CC(C)C(=O)c1ccccc1C(=O)O

Reply:
["87 % of control", "93 % of control"]

Hi team, please reply with T/C for each item in this list.
1. CCCCC#C/C=C/CCCC
2. COc1cccc(C(C)(C)COS(=O)(=O)c2ccc(C)cc2)c1
3. CCCCCC/C=C/C1CC(=O)OC1=O (stereo not given)
4. Cc1cc(O)n(Cc2ccccc2)c(=O)c1
5. Cc1ccc(S(=O)(=O)CO)cc1
6. CC(C)(O)Cc1ccc(Br)cc1
7. Cc1cccc(C(C)(C)C#N)c1

Reply:
1. 95 % of control
2. 90 % of control
3. 88 % of control
4. 93 % of control
5. 108 % of control
6. 95 % of control
7. 92 % of control
